SYSTEM TESTED: 3-phosphoinositide-dependent protein kinase 1 (Homo sapiens, UniProt O15530)
Sequence (O15530 whole entry): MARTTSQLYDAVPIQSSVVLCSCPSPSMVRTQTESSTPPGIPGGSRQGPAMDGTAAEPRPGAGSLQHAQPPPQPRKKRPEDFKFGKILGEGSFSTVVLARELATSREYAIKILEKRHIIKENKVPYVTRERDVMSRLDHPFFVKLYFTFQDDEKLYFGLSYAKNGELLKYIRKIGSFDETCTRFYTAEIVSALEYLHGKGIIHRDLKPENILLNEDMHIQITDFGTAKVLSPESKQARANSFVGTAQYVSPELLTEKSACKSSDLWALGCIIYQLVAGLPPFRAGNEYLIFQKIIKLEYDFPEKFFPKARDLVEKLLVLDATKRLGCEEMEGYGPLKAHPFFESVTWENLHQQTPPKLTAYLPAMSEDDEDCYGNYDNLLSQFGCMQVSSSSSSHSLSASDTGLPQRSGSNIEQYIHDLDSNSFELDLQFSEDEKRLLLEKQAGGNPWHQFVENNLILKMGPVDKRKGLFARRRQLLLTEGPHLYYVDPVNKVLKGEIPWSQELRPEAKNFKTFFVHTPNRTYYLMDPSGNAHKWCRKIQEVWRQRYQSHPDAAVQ
PROTOCOL TEXT: Displacement of PIFtide from His-tagged PDK1 by HTRF assay
RECORDED CONDITIONS: read-out: EC50
Residues, ends and D or L forms follow the SMILES beside them.
Measured EC50, listed per entry.
Numbers only here, please. The scale is µM.

Using the record for O=C(O)CN1C(=O)C(Sc2c(Cl)cccc2Cl)CCc2ccccc21 (centres undefined) , report its EC50.
45

Using the record for O=C(O)CN1C(=O)C(Sc2ccc(Cl)cc2)CCc2ccccc21 (centres undefined) , report its EC50.
23

Using the record for O=C(O)CSC(CC(=O)c1ccc(Cl)cc1)c1ccccc1 (centres undefined) , report its EC50.
133

Using the record for CC[C@H](C)[C@H](NC(=O)[C@H](Cc1ccc(O)cc1)NC(=O)[C@H](CC(=O)O)NC(=O)[C@H](Cc1ccccc1)NC(=O)[C@H](CC(=O)O)NC(=O)[C@H](CCCNC(=N)N)NC(=O)[C@H](Cc1ccccc1)NC(=O)[C@H](CCSC)NC(=O)[C@H](CCC(=O)O)NC(=O)[C@@H](N)CCC(N)=O)C(=O)N[C@@H](C)C(=O)N[C@@H](CC(=O)O)C(=O)N[C@@H](Cc1c[nH]c2ccccc12)C(=O)O (H-QEMFRDFDYIADW-OH) , report its EC50.
10
